So I've got a bunch of molecules here, and I need their pIC50 values.
biological target: Dopamine D2 receptor (D2 long) (Homo sapiens); assay: Dopamine D2 receptor binding assay ([N-methyl-3H]spiroperidol, CHO membranes); conditions: human D2 long receptor in CHO membranes, room temperature, 60 minutes
Sequence (P14416 whole entry): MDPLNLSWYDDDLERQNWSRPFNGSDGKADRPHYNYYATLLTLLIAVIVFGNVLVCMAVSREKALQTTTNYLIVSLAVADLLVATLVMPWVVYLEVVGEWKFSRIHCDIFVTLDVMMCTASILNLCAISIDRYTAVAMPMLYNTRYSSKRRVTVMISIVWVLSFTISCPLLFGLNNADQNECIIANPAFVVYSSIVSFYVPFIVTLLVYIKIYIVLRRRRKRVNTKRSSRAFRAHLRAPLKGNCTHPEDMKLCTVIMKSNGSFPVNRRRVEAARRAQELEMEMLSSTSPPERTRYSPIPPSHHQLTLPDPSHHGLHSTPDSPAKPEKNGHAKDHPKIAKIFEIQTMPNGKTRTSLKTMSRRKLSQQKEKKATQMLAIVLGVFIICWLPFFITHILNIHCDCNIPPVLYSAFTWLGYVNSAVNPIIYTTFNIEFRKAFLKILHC
Numbers only, as −log10 of the molar value.

State the recorded pIC50 for every item in the following list.
1. CCCCCCCCCCCCCCCC(=O)O[C@@H]1[C@H](OC(=O)C(C)C)[C@H](OC[C@@H](O)[C@@H](O)CO)O[C@H](CO)[C@H]1OC(C)=O [Ustilipide C]
2. CCCCCCCCCCCCCCCC(=O)O[C@@H]1[C@H](OC(=O)CCC)[C@H](OC[C@@H](O)[C@@H](O)CO)O[C@H](COC(C)=O)[C@H]1OC(C)=O [Ustilipide B]
3. CCCCCCCCCCCCCCCC(=O)O[C@@H]1[C@H](OC(=O)CCCCC)[C@H](OC[C@@H](O)[C@@H](O)CO)O[C@H](COC(C)=O)[C@H]1OC(C)=O [Ustilipide A]

[4.85, 4.63, 4.37]
